system: TK-10; assay: NCI tumour cell line growth inhibition, 48 h
Activity calls are given as the source filed them. Cut-off read from the data, not from the text of the source: active = GI50 up to about 1.1 µM and inactive = higher.
Possible outcomes: yes (1) (active), no (0) (inactive)

COMPOUND	TEST_SYSTEM	ASSIGNED_LABEL
NC(=O)c1nnc2cc(F)c(F)cc2c1N	TK-10	no (0)
CN(C)CC1CCCC/C1=N/OC(=O)c1ccc(Cl)c(Cl)c1 (centres undefined)	TK-10	no (0)
O=c1c(O)c(-c2ccc(O)c(O)c2)oc2cc(O)cc(O)c12 [QUERCETIN]	TK-10	no (0)
O=C1c2ccccc2C(=O)c2c(Nc3ccc4c5c(cccc35)C(=O)c3ccccc3-4)cccc21	TK-10	no (0)
NC(Cc1ccccc1)(C(=O)O)C(=O)O	TK-10	no (0)
O=S(=O)(c1ccccc1)c1ccc(-c2nc(-c3ccc4c(c3)Sc3ccccc3S4)cs2)cc1	TK-10	no (0)
CN1CCCOC(c2ccc(Cl)cc2)O1 (centres undefined)	TK-10	no (0)
CC(=O)O[C@H]1C(=O)[C@@]2(C)[C@H]([C@H](OC(=O)c3ccccc3)[C@]3(O)C[C@H](OC(=O)[C@H](O)[C@@H](NC(=O)c4ccc(N)cc4)c4ccccc4)C(C)=C1C3(C)C)[C@]1(OC(C)=O)CO[C@@H]1C[C@@H]2O	TK-10	yes (1)
N=C(N)c1ccc(/C=C/c2ccc(C(=N)N)cc2)cc1	TK-10	no (0)
